- Test system: R848-induced IL-6 secretion in human peripheral blood mononuclear cells (PBMCs)
- assay notes: Inhibition of R848-induced IL-6 secretion in human PBMCs (IL-6 ELISA)
- Format: cell-based
- details: PBMC, R848 2.5 μg/mL, 20 h pre-incubation, 24 h stimulation
assay readout: IC50
Give the figure together with its unit, number first.

1. CN(C)c1cc2nn([C@H]3CC[C@H](CN4CC[C@H](n5cc6c(F)cc(N7CCC(=O)NC7=O)cc6n5)C4)CC3)cc2cc1NC(=O)c1cnn2cccnc12    13.4 nM
2. CN(C)c1nc2nc([C@H]3CC[C@H](CN4C[C@@H](n5cc6cc(N7CCC(=O)NC7=O)ccc6n5)[C@@H](F)C4)CC3)cn2cc1NC(=O)c1cnn2cccnc12    22.4 nM
3. O=C1CCC(c2ccc3cn([C@@H]4CCN(C[C@H]5CC[C@H](n6cc7cc(NC(=O)c8cnn9cccnc89)c(F)cc7n6)CC5)C4)nc3c2)C(=O)N1 (some centres unmarked)    14 nM

CN(C)c1cc2nn([C@H]3CC[C@H](CN4C[C@H](F)[C@@H](n5cc6cc(N7CCC(=O)NC7=O)ccc6n5)C4)CC3)cc2cc1NC(=O)c1cnn2cccnc12 has a reported IC50 of 10.3 nM

Value of IC50 reported for the compound CN(C)c1cc2nn([C@H]3CC[C@H](CN4C[C@@H](F)[C@H](n5cc6c(F)cc(C7CCC(=O)NC7=O)cc6n5)C4)CC3)cc2cc1NC(=O)c1cnn2cccnc12 (some centres unmarked) is 25 nM
